target: Mushroom tyrosinase (Agaricus bisporus, UniProt O42713+Q00024+C7FF04+C7FF05); assay: Inhibition of mushroom tyrosinase using L-DOPA as substrate preincubated for 10 mins; type: protein assay
Attribute Measured: IC50 (µM)
Hi! Could you send only the number? It should be in µM, unit omitted.

Please review the following examples before continuing.
Nn1c(SCc2cc(=O)c(O)co2)nnc1-c1ccccc1 : 7.45
Cn1cnnc1SCc1cc(=O)c(O)co1 : 19.18
O=c1cc(O)oc(CSc2nnc(-c3ccccc3)n2NCc2ccc(O)cc2O)c1 : 1.35

Problem: Give the observed IC50 of Cc1nnc(SCc2cc(=O)c(O)co2)n1N for Mushroom tyrosinase (Agaricus bisporus, UniProt O42713+Q00024+C7FF04+C7FF05).
Result: 91.03

---

Below, each entry is listed alongside its reported IC50.
target: Mushroom tyrosinase (Agaricus bisporus, UniProt O42713+Q00024+C7FF04+C7FF05); test: Inhibition of mushroom tyrosinase using L-DOPA as substrate incubated for 20 mins; assay type: protein assay
Hi! Could you send only the number? It should be in µM, unit omitted.

Please review the following examples before continuing.
Fc1ccc(/C=N/n2c(Cc3ccccc3F)n[nH]c2=S)cc1 : 10.09
COc1ccccc1Cc1n[nH]c(=S)n1/N=C/Cc1ccc(O)cc1 : 20.27
Oc1ccccc1Cc1n[nH]c(=S)n1/N=C/c1ccc[nH]1 : 26.02

Pending compound:
Problem: For the compound Oc1ccc(/C=N/n2c(Cc3ccccc3F)n[nH]c2=S)cc1 , report IC50.
Result: 6.23

---

target: Mushroom tyrosinase (Agaricus bisporus, UniProt O42713+Q00024+C7FF04+C7FF05); assay: Inhibition of mushroom tyrosinase using L-DOPA as substrate preincubated for 20 mins followed by substrate addition incubated for 10 mins by absorbance based analysis; assay type: protein assay
Lab note - cut at 60 nM for IC50: t if strictly below, f if not.

COc1cc(C(C)=O)ccc1OCc1cn(Cc2cc(=O)c(O)co2)nn1 : t
O=c1ccc2ccc(OCc3cn(Cc4cc(=O)c(O)co4)nn3)cc2o1 : f
Cc1ccc(C(C)C)c(OCc2cn(Cc3cc(=O)c(O)co3)nn2)c1 : f
Cc1ccc(C(C)C)cc1OCc1cn(Cc2cc(=O)c(O)co2)nn1 : f

Problem: For O=c1cc(OCc2cn(Cc3cc(=O)c(O)co3)nn2)c2ccccc2o1 , is the recorded IC50 below the cut-off of 60 nM?
Result: t

---

target: Mushroom tyrosinase (Agaricus bisporus, UniProt O42713+Q00024+C7FF04+C7FF05); test: Inhibition of mushroom tyrosinase; format: protein assay
Below, each entry is listed alongside its reported IC50.
Hi! Could you send only the number? It should be in µM, unit omitted.

CCOc1ccc(NC(=O)CSc2nnc(CCCc3c[nH]c4ccccc34)n2CC)cc1 : 0.072
O=C1N=C(Nc2ccccc2)S/C1=C\c1ccc(OCc2cnnn2Cc2ccc(Cl)c(Cl)c2)cc1 : 49.4
CCc1ccccc1NC(=O)CSc1nnc(CCCc2c[nH]c3ccccc23)n1CC : 0.033
CCn1c(CCCc2c[nH]c3ccccc23)nnc1SCC(=O)Nc1c(C)cccc1C : 0.035

Problem: Give the observed IC50 of O=C1N=C(Nc2ccncc2)S/C1=C\c1ccccc1OCc1cn(Cc2ccccc2Cl)nn1 for Mushroom tyrosinase (Agaricus bisporus, UniProt O42713+Q00024+C7FF04+C7FF05).
Result: 6.34
